targetOrSystem: UniProt:Q9Y2D0
Sequence (Q9Y2D0 whole entry): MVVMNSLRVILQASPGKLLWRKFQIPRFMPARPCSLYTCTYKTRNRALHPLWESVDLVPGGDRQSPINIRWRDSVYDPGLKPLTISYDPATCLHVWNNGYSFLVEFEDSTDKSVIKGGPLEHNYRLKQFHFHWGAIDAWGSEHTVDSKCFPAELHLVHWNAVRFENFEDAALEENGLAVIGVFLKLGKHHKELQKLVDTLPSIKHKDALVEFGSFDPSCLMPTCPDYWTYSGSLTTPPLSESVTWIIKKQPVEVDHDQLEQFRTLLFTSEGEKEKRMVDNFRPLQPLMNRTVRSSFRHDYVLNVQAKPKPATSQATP
procedureText: Inhibition of human recombinant carbonic anhydrase 5B preincubated for 15 mins to 72 hrs measured after 6 hrs by stopped flow CO2 hydration method
conditionLabel: tested as the Zn salt or complex
recordedMetric: pKi
One number for each entry, as −log10 of the molar value.

Tested on UniProt:Q9Y2D0: [O-][n+]1ccccc1S [PYRITHIONE ZINC] . Observed pKi: 5.45

* * *

targetOrSystem: Carbonic anhydrase 12 (Homo sapiens, UniProt O43570)
Sequence (O43570 whole entry): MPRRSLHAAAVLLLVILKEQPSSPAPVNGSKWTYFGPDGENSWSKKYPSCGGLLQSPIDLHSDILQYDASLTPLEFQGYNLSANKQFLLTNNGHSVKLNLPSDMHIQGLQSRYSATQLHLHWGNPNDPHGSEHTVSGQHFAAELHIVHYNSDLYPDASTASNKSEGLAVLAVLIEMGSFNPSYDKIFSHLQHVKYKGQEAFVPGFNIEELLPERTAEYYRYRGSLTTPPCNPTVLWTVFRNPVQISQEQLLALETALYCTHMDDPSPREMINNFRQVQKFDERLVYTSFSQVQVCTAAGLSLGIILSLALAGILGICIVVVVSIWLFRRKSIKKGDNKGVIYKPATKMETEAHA
procedureText: Inhibition of human recombinant carbonic anhydrase 12 preincubated for 15 mins to 72 hrs measured after 6 hrs by stopped flow CO2 hydration method
Consider the following compounds; for each one, report its Ki.
Numbers only, in µM.

Here are 2 compounds together with their reported answers.
O/N=c1/ccc2ccccc2o1 :: 0.054
CCOP(=S)(OCC)Oc1ccc2c(C)c(Cl)c(=O)oc2c1 :: 9.52

Dear reader, for each entry below, please note its Ki.
1. Cc1cc(C)o/c(=N/O)c1
2. Oc1ccc2ccccc2n1

Output line:
[0.064, 0.093]

Ki recorded for this compound, `O=C(S)c1ccccc1` , is 2.77

* * *

targetOrSystem: Carbonic anhydrase 2 (Homo sapiens)
procedureText: Inhibition of human recombinant carbonic anhydrase 2 preincubated for 15 mins to 72 hrs measured after 15 mins by stopped flow CO2 hydration method
recordedMetric: pKi
Give bare numbers, as −log10 of the molar value.

For this compound ( `O=C(S)c1ccccc1` ), measured pKi is 4.29

* * *

targetOrSystem: UniProt:P00918
procedureText: Inhibition of human recombinant carbonic anhydrase 2 preincubated for 15 mins to 72 hrs measured after 15 mins by stopped flow CO2 hydration method
conditionLabel: tested as the Zn salt or complex
recordedMetric: Ki

// sample [O-][n+]1ccccc1S [PYRITHIONE ZINC] , its Ki was > 200 µM

* * *

targetOrSystem: Carbonic anhydrase 5A, mitochondrial (Homo sapiens, UniProt P35218)
Sequence (P35218 whole entry): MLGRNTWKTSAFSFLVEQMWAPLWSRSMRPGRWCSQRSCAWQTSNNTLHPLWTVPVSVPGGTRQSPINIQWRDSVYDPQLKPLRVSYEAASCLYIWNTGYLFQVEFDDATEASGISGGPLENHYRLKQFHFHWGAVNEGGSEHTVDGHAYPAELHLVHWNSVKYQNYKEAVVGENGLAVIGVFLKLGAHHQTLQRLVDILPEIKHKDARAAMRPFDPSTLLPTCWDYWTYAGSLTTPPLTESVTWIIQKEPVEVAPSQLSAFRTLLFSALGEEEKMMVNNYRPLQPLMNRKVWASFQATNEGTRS
procedureText: Inhibition of human recombinant carbonic anhydrase 5A preincubated for 15 mins to 72 hrs measured after 6 hrs by stopped flow CO2 hydration method
conditionLabel: tested as the Zn salt or complex
recordedMetric: Ki
Your answer should be a number followed by the unit of measure.

Item: `[O-][n+]1ccccc1S` | Ki: 5.12 µM

These measurements were taken from ChEMBL document CHEMBL1955812.
